Species on record: Oryctolagus cuniculus
Assay Remarks: Potency index, ratio of (S)-blebbistatin (S)-1 IC50 to compound IC50 for inhibition of rabbit full length skeletal muscle myosin 2 ATPase activity by CytoPhos reagent based ATPase assay
Attribute Measured: Ratio IC50

Reference set (3 entries):
// field: Ratio IC50; key: "Cc1ccc2c(c1)C(=O)[C@]1(O)CCN(c3ccc(N)cc3)C1=N2" ; value = 0.19

Item: "Cc1ccc2c(c1)C(=O)[C@]1(O)CCN(c3cccc(O)c3)C1=N2" | Ratio IC50: 0.11

The compound identified as "Cc1ccc2c(c1)C(=O)[C@]1(O)CCN(c3ccc(O)cc3)C1=N2" registered its Ratio IC50 at 0.16

P. Cc1ccc2c(c1)C(=O)[C@]1(O)CCN(c3cccc(N)c3)C1=N2
Q. Cc1ccc2c(c1)C(=O)[C@]1(O)CCN(c3ccc([N+](=O)[O-])cc3)C1=N2
R. C=CC(=O)Oc1cccc(N2CC[C@@]3(O)C(=O)c4cc(C)ccc4N=C23)c1
Query: Parameters: sort_field (Ratio IC50), sort_dir (desc). Ranked list of labels, please, in the requested order.
Result: Q, P, R

---

Assay Remarks: Apparent permeability from apical to basolateral side in human Caco2 cells assessed as drug recovery at 10 uM after 60 mins by HPLC-MS/MS analysis
Assay type: ADME, cell-based
Test Settings: Caco-2, read-out: Drug recovery
Attribute Measured: recovery at 1 h, 10 µM (%)

So for "Cc1ccc2c(c1)C(=O)[C@]1(O)CCN(c3ccccc3)C1=N2" , the logged recovery at 1 h, 10 µM turned out to be 66

Kindly note the recorded recovery at 1 h, 10 µM for "C=CCOc1ccc(N2CC[C@@]3(O)C(=O)c4cc(C)ccc4N=C23)cc1" , which is 32

Entry under test: "Cc1ccc2c(c1)C(=O)[C@]1(O)CCN(c3cccc(N)c3)C1=N2" . Its recovery at 1 h, 10 µM was 79

I. Cc1ccc2c(c1)C(=O)[C@]1(O)CCN(c3ccc(N)cc3)C1=N2
II. Cc1ccc2c(c1)C(=O)[C@]1(O)CCN(c3cccc(O)c3)C1=N2
III. Cc1ccc2c(c1)C(=O)[C@]1(O)CCN(c3ccc([N+](=O)[O-])cc3)C1=N2
Query: // ranking: key=recovery at 1 h, 10 µM, reverse=True Write the labels, ordered according to the request.
Result: I, II, III

---

Organism: Oryctolagus cuniculus
Assay Remarks: Potency index, ratio of (S)-blebbistatin (S)-1 IC50 to compound IC50 for inhibition of rabbit full length skeletal muscle myosin 2 ATPase activity by CytoPhos reagent based ATPase assay
Attribute Measured: Ratio IC50

Briefly, Ratio IC50 measured for "Cc1ccc2c(c1)C(=O)[C@]1(O)CCN(c3ccc4cc[nH]c4c3)C1=N2" : 0.12

In plain terms, "C=CCOc1ccc(N2CC[C@@]3(O)C(=O)c4cc(C)ccc4N=C23)cc1" has a documented Ratio IC50 of 2.3

The compound listed as "CCC(=O)Oc1cccc(N2CC[C@@]3(O)C(=O)c4cc(C)ccc4N=C23)c1" has a reported Ratio IC50 of 0.09

The reported value for "Cc1ccc2c(c1)C(=O)[C@]1(O)CCN(c3ccccc3)C1=N2" in terms of Ratio IC50 is 1

A. Cc1ccc2c(c1)C(=O)[C@]1(O)CCN(c3ccc4c(c3)NCC4)C1=N2
B. C=CCOc1cccc(N2CC[C@@]3(O)C(=O)c4cc(C)ccc4N=C23)c1
C. Cc1ccc2c(c1)C(=O)[C@]1(O)CCN(c3cccc(C#N)c3)C1=N2
Query: Put the items in order so that reported Ratio IC50 rises from first to last. Your task in answering is to list the labels in the requested order.
Result: C, A, B
(C: 0.04, A: 0.11, B: 0.23)

---

Assay Remarks: Apparent permeability from basolateral to apical side in human Caco2 cells at 10 uM after 40 mins by HPLC-MS/MS analysis
Assay type: ADME, cell-based
Test Settings: Caco-2
Attribute Measured: Papp B→A at 40 min, 10 µM (×10⁻⁶ cm/s)

A. Cc1ccc2c(c1)C(=O)[C@]1(O)CCN(c3cccc(O)c3)C1=N2
B. Cc1ccc2c(c1)C(=O)[C@]1(O)CCN(c3ccc([N+](=O)[O-])cc3)C1=N2
C. C=CCOc1ccc(N2CC[C@@]3(O)C(=O)c4cc(C)ccc4N=C23)cc1
D. Cc1ccc2c(c1)C(=O)[C@]1(O)CCN(c3cccc(N)c3)C1=N2
Query: Task for the reader: place the molecules above in descending order according to recorded Papp B→A at 40 min, 10 µM. Write the labels, ordered according to the request.
Result: D, A, C, B
(D: 26.2 ×10⁻⁶ cm/s, A: 17.2 ×10⁻⁶ cm/s, C: 7.58 ×10⁻⁶ cm/s, B: 2.23 ×10⁻⁶ cm/s)

1. Cc1ccc2c(c1)C(=O)[C@]1(O)CCN(c3ccccc3)C1=N2
2. Cc1ccc2c(c1)C(=O)[C@]1(O)CCN(c3ccc(N)cc3)C1=N2
Query: Returns: the label, 1 or 2 , whose recorded Papp B→A at 40 min, 10 µM is the lower number. Your answer should be the label of the entry you select.
Result: 1

---

Assay Remarks: Apparent permeability from basolateral to apical side in human Caco2 cells assessed as drug recovery at 10 uM after 40 mins by HPLC-MS/MS analysis
Type: ADME, cell-based
Test Settings: Caco-2, read-out: Drug recovery
Attribute Measured: recovery at 40 min, 10 µM (%)

Item: "Cc1ccc2c(c1)C(=O)[C@]1(O)CCN(c3ccc([N+](=O)[O-])cc3)C1=N2" | recovery at 40 min, 10 µM: 72

Quick note, recovery at 40 min, 10 µM for "C=CCOc1ccc(N2CC[C@@]3(O)C(=O)c4cc(C)ccc4N=C23)cc1" landed at 65

Value of recovery at 40 min, 10 µM reported for the molecule "Cc1ccc2c(c1)C(=O)[C@]1(O)CCN(c3ccccc3)C1=N2" is 66

Recorded recovery at 40 min, 10 µM (molecule "Cc1ccc2c(c1)C(=O)[C@]1(O)CCN(c3ccc(N)cc3)C1=N2" ): 82

The molecule listed as "Cc1ccc2c(c1)C(=O)[C@]1(O)CCN(c3cccc(O)c3)C1=N2" shows recovery at 40 min, 10 µM equal to 70

// field: recovery at 40 min, 10 µM; key: "Cc1ccc2c(c1)C(=O)[C@]1(O)CCN(c3cccc(N)c3)C1=N2" ; value = 74

---

Assay Remarks: Inhibition of rabbit full length skeletal muscle myosin 2 ATPase activity using Pre-formed rabbit skeletal muscle F-actin filaments and ATP incubated for 1 hr by CytoPhos reagent based ATPase assay
Set-up: species or system Oryctolagus cuniculus
Attribute Measured: IC50 (µM)

Example entries and their recorded answers appear below.
Looking up "Cc1ccc2c(c1)C(=O)[C@]1(O)CCN(c3ccc4c(c3)NCC4)C1=N2" , I see its IC50 listed as 7.7

Entry "Cc1ccc2c(c1)C(=O)[C@]1(O)CCN(c3ccc4cc[nH]c4c3)C1=N2" ; IC50 = 7.2

compound "C=CCOc1cccc(N2CC[C@@]3(O)C(=O)c4cc(C)ccc4N=C23)c1" , IC50 observed: 9.41

1. Cc1ccc2c(c1)C(=O)[C@]1(O)CCN(c3ccc(O)cc3)C1=N2
2. C=CC(=O)Oc1cccc(N2CC[C@@]3(O)C(=O)c4cc(C)ccc4N=C23)c1
Query: Hi there! Just curious which has the higher IC50 between 1 and 2 . Bench note: the answer is the label of the chosen record.
Result: 2
(2: 57.6 µM, 1: 5.47 µM)

1. C=CCOc1ccc(N2CC[C@@]3(O)C(=O)c4cc(C)ccc4N=C23)cc1
2. CCC(=O)Oc1cccc(N2CC[C@@]3(O)C(=O)c4cc(C)ccc4N=C23)c1
Query: Between 1 and 2 , whose measured IC50 reads higher? Indicate your choice by writing its label.
Result: 2
(2: 23.5 µM, 1: 0.38 µM)

---

Species: Oryctolagus cuniculus
Assay Remarks: Potency index, ratio of (S)-blebbistatin (S)-1 IC50 to compound IC50 for inhibition of rabbit full length skeletal muscle myosin 2 ATPase activity by CytoPhos reagent based ATPase assay
Attribute Measured: Ratio IC50

Below are worked cases with known answers.
Looking up "C=CC(=O)Nc1cccc(N2CC[C@@]3(O)C(=O)c4cc(C)ccc4N=C23)c1" , I found its Ratio IC50 recorded as < 0.02

Reported Ratio IC50 ( "CCC(=O)Nc1cccc(N2CC[C@@]3(O)C(=O)c4cc(C)ccc4N=C23)c1" ) = < 0.02

Further cases:
Measured Ratio IC50 of "Cc1ccc2c(c1)C(=O)[C@]1(O)CCN(c3cccc(C(=O)O)c3)C1=N2" : < 0.02

---

Species on record: Oryctolagus cuniculus
Assay Remarks: Potency index, ratio of (S)-blebbistatin (S)-1 IC50 to compound IC50 for inhibition of rabbit full length skeletal muscle myosin 2 ATPase activity by CytoPhos reagent based ATPase assay
Attribute Measured: Ratio IC50

# example entries with known answers
Ratio IC50 reported for this compound "Cc1ccc2c(c1)C(=O)[C@]1(O)CCN(c3cccc(C(N)=O)c3)C1=N2" : < 0.02

Recorded result, "Cc1ccc2c(c1)C(=O)[C@]1(O)CCN(c3ccc4ccccc4c3)C1=N2" , Ratio IC50: < 0.02

Kindly review the next compound as well.
Field Ratio IC50 (entry "Cc1ccc2c(c1)C(=O)[C@]1(O)CCN(c3ccc(OCc4ccccc4)cc3)C1=N2" ) reads < 0.02
